Kindly supply the reported pKd values for the records listed here.
target-system: T1, human TL1A (Fitzgerald #30R-AT070) (human, UniProt O95150 72-251, limits assumed)
T1 construct: Coated on the ELISA plate at 1 ug/mL; also called TNFSF15
T1 sequence (looked up): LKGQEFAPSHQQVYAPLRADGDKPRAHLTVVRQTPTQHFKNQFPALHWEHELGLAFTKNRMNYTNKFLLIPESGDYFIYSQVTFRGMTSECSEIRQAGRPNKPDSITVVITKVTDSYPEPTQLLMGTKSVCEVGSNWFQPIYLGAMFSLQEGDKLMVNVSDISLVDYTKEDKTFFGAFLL
experimental-protocol: ELISA titration, coated human TL1A, culture supernatant
Here pKd is given on a logarithmic scale as minus log10 of the concentration in mol/L.

For A112 (antibody, human IgG1, V domains shown, human IgG1/kappa (pFuse vectors), culture supernatant) VH: QVQLVQSGAEVKKPGASVKVSCKASGFDIQDTYMHWVKQRPGQGLEWMGRIEPASGHIKYDPKFQGRVTMTRDTSTSTVYMELSSLRSEDTAVYYCARSGGLPDWWGQGTTVTVSS VL: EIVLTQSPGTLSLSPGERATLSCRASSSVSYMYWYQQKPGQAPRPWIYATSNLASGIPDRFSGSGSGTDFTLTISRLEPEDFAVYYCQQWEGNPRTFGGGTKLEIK , what is its reported pKd? 10.27

For A108 (antibody, human IgG1, V domains shown, human IgG1/kappa (pFuse vectors), culture supernatant) VH: EVQLVQSGAEVKKPGASVKVSCKASGFDIQDTYMHWVRQAPGQGLEWMGRIEPASGHIKYDPKFQGRVTMTRDTSTSTVYMELSSLRSEDTAVYYCARSGGLPDWWGQGTTVTVSS VL: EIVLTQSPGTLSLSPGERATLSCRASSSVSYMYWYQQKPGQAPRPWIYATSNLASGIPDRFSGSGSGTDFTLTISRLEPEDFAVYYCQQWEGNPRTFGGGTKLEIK , what is its reported pKd? 10.26

For A74 (antibody, human IgG1, V domains shown, human IgG1/kappa (pFuse vectors), culture supernatant) VH: QVQLVQSGAEVKKPGASVKVSCKASGFDIQDTYMHWVRQAPGQGLEWMGRIEPASGHIKYDPKFQGRVTITTDTSTSTVYMELSSLRSEDTAVYYCARSGGLPDWWGQGTTVTVSS VL: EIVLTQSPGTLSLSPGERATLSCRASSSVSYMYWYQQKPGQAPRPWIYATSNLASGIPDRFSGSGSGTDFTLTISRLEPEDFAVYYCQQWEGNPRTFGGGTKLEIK , what is its reported pKd? 9.85

For A133 (antibody, human IgG1, V domains shown, human IgG1/kappa (pFuse vectors), culture supernatant) VH: QVQLVQSGAEVKKPGASVKVSCKASGFDIQDTYMHWVRQAPGQGLEWMGRIEPASGHIKYDPKFQVRVTMTRDTSTSTVYMELSSLRSEDTAVYYCARSGGLPDWWGQGTTVTVSS VL: EIVLTQSPGTLSLSPGERATLSCRASSSVSYMYWYQQKPGQAPRPLIYATSNLASGIPDRFSGSGSGTDFTLTISRLEPEDFAVYYCQQWKGNPRTFGGGTKLEIK , what is its reported pKd? 10.24

For A92 (antibody, human IgG1, V domains shown, human IgG1/kappa (pFuse vectors), culture supernatant) VH: QVQLVQSGAEVKKPGASVKVSCKASGFDIQDTYMHWVRQAPGQGLEWMGRIEPASGHIKYDPKFQGRVTMTRDTSTSTVYLELSSLRSEDTAVYYCARSGGLPDWWGQGTTVTVSS VL: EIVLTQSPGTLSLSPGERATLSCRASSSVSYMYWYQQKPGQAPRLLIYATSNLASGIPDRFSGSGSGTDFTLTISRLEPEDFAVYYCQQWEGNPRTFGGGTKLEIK , what is its reported pKd? 9.92

For A137 (antibody, human IgG1, V domains shown, human IgG1/kappa (pFuse vectors), culture supernatant) VH: QVQLVQSGAEVKKPGASVKVSCKASGFDIQDTYMHWVRQAPGQGLEWMGRIEPASGHIKYDPKFQVRVTMTRDTSTSTVYMELSSLRSEDTAVYYCARSGGLPDWWGQGTTVTVSS VL: EIVLTQSPGTLSLSPGERATLSCRASSSVSYMYWYQQKPGQAPRLLIYATSNLASGIPDRFSGSGSGTDFTLTISRLEPEDFAVYYCQQWSRNPRTFGGGTKLEIK , what is its reported pKd? 10.30

For A55 (antibody, human IgG1, V domains shown, human IgG1/kappa (pFuse vectors), culture supernatant) VH: EVQLVQSGAEVKKPGASVKVSCKASGFDIQDTYMHWVKQRPGQGLEWIGRIDPASGHTKYDPKFQVRATITTDTSTSTAYLELSSLRSEDTAVYYCARSGGLPDVWGQGTTVTVSS VL: EIVLTQSPGTLSASPGERATMSCRASSSVSYMYWYQQKPGQAPRPWIYATSNLASGVPDRFSGSGSGTDYTLTISRVEPEDFAVYYCQQWSGNPRTFGGGTKLEIK , what is its reported pKd? 10.04

For A135 (antibody, human IgG1, V domains shown, human IgG1/kappa (pFuse vectors), culture supernatant) VH: QVQLVQSGAEVKKPGASVKVSCKASGFDIQDTYMHWVRQAPGQGLEWMGRIEPASGHIKYDPKFQGRVTMTRDTSTSTAYMELSSLRSEDTAVYYCARSGGLPDWWGQGTTVTVSS VL: EIVLTQSPGTLSLSPGERATLSCRASSSVSYMYWYQQKPGQAPRPLIYATSNLASGIPDRFSGSGSGTDFTLTISRLEPEDFAVYYCQQWKGNPRTFGGGTKLEIK , what is its reported pKd? 10.25

For A87 (antibody, human IgG1, V domains shown, human IgG1/kappa (pFuse vectors), culture supernatant) VH: QVQLVQSGAEVKKPGASVKVSCKASGFDIQDTYMHWVRQAPGQGLEWMGRIEPASGHIKYDPKFQGRVTMTRDTSTSTVYMELSSLRSEDTAVYYCARSGGLPDWWGQGTTVTVSS VL: EIVLTQSPGTLSLSPGERATLSCRASSSVSYMYWYQQKPGQAPRLLIYATSNLASGIPDRFSGSGSGTDFTLTISRVEPEDFAVYYCQQWEGNPRTFGGGTKLEIK , what is its reported pKd? 9.92
